Overview of recorded pKi for various molecules
target: Cannabinoid receptor 1 (Homo sapiens, UniProt P21554); experiment: Binding affinity against the cannabinoid receptor in the presence of PMSF (expt 1)
Sequence (P21554 whole entry): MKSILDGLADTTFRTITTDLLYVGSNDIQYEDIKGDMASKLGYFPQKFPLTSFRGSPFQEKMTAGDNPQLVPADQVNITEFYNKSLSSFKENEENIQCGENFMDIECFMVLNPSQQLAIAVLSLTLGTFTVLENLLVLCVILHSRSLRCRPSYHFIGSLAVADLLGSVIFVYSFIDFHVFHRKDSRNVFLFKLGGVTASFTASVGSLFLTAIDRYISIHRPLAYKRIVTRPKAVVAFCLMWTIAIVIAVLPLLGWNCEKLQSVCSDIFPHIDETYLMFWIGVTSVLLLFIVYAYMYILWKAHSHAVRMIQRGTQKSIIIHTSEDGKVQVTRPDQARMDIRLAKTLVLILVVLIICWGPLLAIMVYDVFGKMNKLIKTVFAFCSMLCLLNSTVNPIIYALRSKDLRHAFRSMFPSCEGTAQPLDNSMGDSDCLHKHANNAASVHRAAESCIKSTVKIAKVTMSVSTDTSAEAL
Reminder that pKi means the negative base-10 logarithm of the concentration expressed in mol/L.

> print(dat)
                                   molecule  measurement
1  CCCCC/C=C\C/C=C\C/C=C\C/C=C\CCC(C)(C)C(=O)NCCO         7.33

Report pKi for CCCCC/C=C\C/C=C\C/C=C\C/C=C\CCC(C)C(=O)NCCO (configuration not stated) please. 7.28

###

target: Cannabinoid receptor 1 (Rattus norvegicus, UniProt P20272); test: In vitro binding affinity was determined against rat brain Cannabinoid receptor 1; settings: read-out: Ki
Sequence (P20272 whole entry): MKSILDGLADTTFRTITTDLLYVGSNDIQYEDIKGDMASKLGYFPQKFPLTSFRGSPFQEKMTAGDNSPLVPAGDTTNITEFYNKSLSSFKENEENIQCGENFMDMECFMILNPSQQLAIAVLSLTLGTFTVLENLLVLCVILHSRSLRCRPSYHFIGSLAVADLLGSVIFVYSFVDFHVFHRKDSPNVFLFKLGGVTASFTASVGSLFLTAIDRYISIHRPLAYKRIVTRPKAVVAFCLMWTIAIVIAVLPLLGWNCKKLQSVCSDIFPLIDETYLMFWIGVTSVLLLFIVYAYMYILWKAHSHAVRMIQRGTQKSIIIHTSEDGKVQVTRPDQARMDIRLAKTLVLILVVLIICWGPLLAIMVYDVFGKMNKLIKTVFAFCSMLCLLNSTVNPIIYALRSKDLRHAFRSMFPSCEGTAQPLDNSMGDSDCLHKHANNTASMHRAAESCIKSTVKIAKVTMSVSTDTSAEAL
experimental endpoint: pKi
A value of pKi is the negative decimal logarithm of a concentration given in moles per litre.

Solved cases (5 shown):
> print(dat)
                               smiles.input  experimental.endpoint  measurement
1  CCCCC/C=C\C/C=C\C/C=C\C/C=C\CCC(C)(C)C(=O)NCCC                    pKi         8.16
2    CCCCC/C=C\C/C=C\C/C=C\C/C=C\CCCC(=O)NC                    pKi         7.22
3  CCCCC/C=C\C/C=C\C/C=C\C/C=C\CCCC(=O)NC(C)C                    pKi         7.87
4  CCCCC/C=C\C/C=C\C/C=C\C/C=C\CCCC(=O)NCCOP(=O)(O)O                    pKi         6.72
5  CCCCC/C=C\C/C=C\C/C=C\C/C=C\CCCC(=O)N[C@H](C)CC                    pKi         6.62

Could you now consider this next molecule?
For Cannabinoid receptor 1 (Rattus norvegicus, UniProt P20272), provide pKi of `CCCCC/C=C\C/C=C\C/C=C\C/C=C\CCCC(=O)NCCC` please. 7.93

###

target: Cannabinoid receptor 1 (Homo sapiens); assay: Binding affinity against the cannabinoid receptor in the presence of PMSF
experimental endpoint: Ki

> print(dat)
                               smiles.input  measurement
1  CCCCC/C=C\C/C=C\C/C=C\C/C=C\CCCC(=O)NCCCO     0.189 µM
2  CCCCC/C=C\C/C=C\C/C=C\C/C=C\CCCC(=O)NCCOC      1.82 µM

I would be grateful if you could share the reported Ki for `CCCCC/C=C\C/C=C\C/C=C\C/C=C\CCCC(=O)NCCC(C)C` . 1.86 µM

###

molecular target: Cannabinoid receptor 1 (Homo sapiens, UniProt P21554); experiment: Binding affinity against the cannabinoid receptor
experimental endpoint: pKi
Scale for pKi: -log10 of concentration given in mol/L; no unit attached.

Example entries begin here.
> print(dat)
                               smiles.input  experimental.endpoint  measurement
1     CCCCC/C=C\C/C=C\C/C=C\CCCCCCC(=O)NCCO                    pKi         6.22
2  CCCCC/C=C\C/C=C\C/C=C\C/C=C\CCCC(=O)NCCCC                    pKi         7.52
3  CCCCC/C=C\C/C=C\C/C=C\C/C=C\CCCC(=O)NCCCO                    pKi         7.89

Recorded pKi of `CCCCC/C=C\C/C=C\C/C=C\C/C=C\CCCC(=O)NCCC` , please. 8.14

Can you look up the measured pKi of `CCCCC/C=C\C/C=C\C/C=C\C/C=C\CCCC(=O)NCCOC` for me? 6.19

Form field: reported pKi of `CCCCC/C=C\C/C=C\C/C=C\C/C=C\CCC(C)(C)C(=O)NCCO` 7.39

###

target: Cannabinoid receptor 1 (Homo sapiens, UniProt P21554); experiment: Binding affinity against the cloned human Cannabinoid receptor 1
Some compounds, each annotated with its measured Ki.
Number in µM, nothing else.

Given `CCCCC/C=C\C/C=C\C/C=C\C/C=C\CCCC(=O)NCCCO` , state its recorded Ki. 0.364

Please give the measured Ki for this compound: `CC/C=C/C/C=C\C/C=C\C/C=C\C/C=C\C/C=C/CCC(=O)NCCO` 12.2

Give the measured Ki of CCCCC/C=C\C/C=C\C/C=C\C/C=C\CCCC(N)=O [ARACHIDONAMIDE] . 9.6

###

molecular target: Cannabinoid receptor 1 (Rattus norvegicus); assay: In vitro binding affinity was determined against rat brain Cannabinoid receptor 1; conditions: read-out: Ki
Catalogue of compounds with associated pKi
// returns pKi (minus log10 of molar concentration), number only

> print(dat)
                               smiles.input  experimental.endpoint  measurement
1  CC/C=C/C/C=C\C/C=C\C/C=C\C/C=C/CCCC(=O)NCCO                    pKi         6.79

Now consider the entry below.
Would you kindly share the measured pKi for `CCCCC/C=C\C/C=C\C/C=C\C/C=C\CCC(C)(C)C(=O)NC[C@H](C)O` ? 7.33

###

# reported pKi; entries follow
target: Cannabinoid receptor 1 (Homo sapiens); assay: Binding affinity against the cannabinoid receptor in the presence of PMSF (experiment 2)
// scale note: pKi = -log10(conc_M); give the bare number

> print(dat)
                               smiles.input  measurement
1  CCCCC/C=C\C/C=C\C/C=C\C/C=C\CCC(C)(C)C(=O)NCCO         7.33

Value lookup for pKi; key = `CC/C=C/C/C=C\C/C=C\C/C=C\C/C=C/CCCC(=O)NCCO` 5.83

###

molecular target: Cannabinoid receptor 1 (Rattus norvegicus); test: In vitro binding affinity was determined against rat brain Cannabinoid receptor 1; conditions: read-out: Ki
pKi: −log10 of the molar value.
The threshold is inclusive: pKi of exactly 7 counts as yes; values below receive no.

Assess whether reported pKi for `CC/C=C/C/C=C\C/C=C\C/C=C\CCCCC(=O)NCCO` sits at 7 or higher. no

Could you verify whether the entry `CCCCC/C=C\C/C=C\C/C=C\C/C=C\CCCC(=O)NCCN(CC)CC` shows pKi of no less than 7? no

# check: pKi of `CCCCC/C=C\C/C=C\CCCCCCCCCC(=O)NCCO` is greater than or equal to 7 no

Given `CCCCCCCC/C=C\CCCCCCCCCC(=O)NCCO` , state whether its pKi is at least 7. no

Is reported pKi greater than or equal to 7 here: `CCCCC/C=C\C/C=C\C/C=C\C/C=C\CCC(C)(C)C(=O)NCCO` yes

Could you tell me if the measured pKi of `CCCCC/C=C\C/C=C\C/C=C\C/C=C\CCCC(=O)NCCCC` reaches 7 or more? no

Would you say CCCCC/C=C\C/C=C\C/C=C\C/C=C\CCC(C)C(=O)NC(C)C (configuration not stated) shows pKi at minimum 7? yes

Hello, I need to know if `CCCCC/C=C\C/C=C\C/C=C\C/C=C\CCCC(=O)N[C@@H](C)CC` has measured pKi not below 7. Thanks! no

Quick check: does CCCCC/C=C\C/C=C\C/C=C\C/C=C\CCC(C)C(=O)NCCC (configuration not stated) have pKi greater than or equal to 7? yes

For this compound, is measured pKi 7 or higher? `CCCCC/C=C\C/C=C\C/C=C\C/C=C\CCCC(=O)N(CC)CCO` no

Check if pKi >= 7 (inclusive). Item: `CCCCC/C=C\C/C=C\C/C=C\C/C=C\CCCC(=O)N(CC)CC` no

Confirm if pKi reported for the compound `CC/C=C/C/C=C\C/C=C\CCCCCCCCCC(=O)NCCO` is 7 or above. no

Does pKi meet or surpass 7 for `CCCCC/C=C\C/C=C\C/C=C\C/C=C\CCC(C)(C)C(=O)N[C@@H](C)CO` ? no

I'd appreciate it if you could say whether CCCCC/C=C\C/C=C\C/C=C\C/C=C\CCCC(=O)NC(C)C(O)c1ccccc1 (configuration not stated) has pKi at least equal to 7. no

###

Here, each record is paired with measured Ki data.
molecular target: Cannabinoid receptor 1 (Rattus norvegicus, UniProt P20272); test: In vitro binding affinity was determined against rat brain Cannabinoid receptor 1; conditions: read-out: Ki

> print(dat)
                               smiles.input  measurement
1  CCCCC/C=C\C/C=C\C/C=C\C/C=C\CCCC(=O)N(C)CCO      > 10 µM
2  CCCCC/C=C\C/C=C\C/C=C\C/C=C\CCCC(=O)NCC(=O)O      > 10 µM
3  CCCCC/C=C\C/C=C\C/C=C\C/C=C\CCCC(=O)N(CCC)CCO      > 10 µM

Field request: Ki | item: `CCCCC/C=C\C/C=C\C/C=C\C/C=C\CCCC(=O)NO` > 1 µM
